Data origin: PubChem BioAssay

method.summary: PSAC antagonists in infected red cells, primary screen, cell-based, P. falciparum Indochina, OD700, 18 h (AID 1157)
setup.conditions: P. falciparum Indochina infected erythrocytes, osmotic lysis OD700, 18 h; higher = more signal, called active from +8 up or from −8 down
Record form. Attribute: z-score. Fill in for each entry.
One number for each entry.

Solved entries (count: 4):
given.smiles	z-score
COc1ccc(C(=O)Nc2ccc(CN3C(=O)[C@]4(O[C@H](CC(=O)N(CCO)Cc5ccccc5)[C@@H]([Si](C)(C)c5ccc(OC)cc5)[C@@H]4C)c4ccccc43)cc2)cc1	1.02
COCCOC(=O)N1C(=O)[C@@]2(c3ccccc31)[C@H](C(=O)Nc1nc3ccccc3s1)[C@H]1C(=O)O[C@H](c3ccccc3)[C@H](c3ccccc3)N1[C@@H]2c1ccccc1OCCO	1.95
C[C@]1(C(=O)O)c2ccccc2C(=O)N(Cc2cc(C(F)(F)F)cc(C(F)(F)F)c2)[C@H]1c1ccc(CO)cc1	0.157
C=CCNC(=O)[C@H]1[C@@H]2C(=O)O[C@@H](c3ccccc3)[C@@H](c3ccccc3)N2[C@@H](c2ccc(O)cc2)[C@]12C(=O)Nc1ccccc12	0.393

We now examine a further compound.
For record CN(C)CCCC[C@@H]1NC(=O)[C@H]2C[C@@H](C(=O)NCCCCCCNC(=O)CS)[C@@H](c3cccc(OCCO)c3)N2C1=O the listed z-score is 0.228

====

method.summary: Plasmodium falciparum growth inhibition, primary screen, strain 3D7, DAPI fluorescence, 100 nL (AID 1184);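 also: parasites grown inside human red blood cells in medium with human serum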
setup.conditions: P. falciparum 3D7 growth, 3 d, higher = more signal
For each of the compounds below, state its z-score.
One number for each entry.

Record excerpt, results attached:
                               given_smiles  endpoint_value
0  Cc1ccc(S(=O)(=O)N2[C@@H](c3ccccc3)C(C(=O)O)=C[C@H]2C(C)(C)C)cc1           -1.04
1  CC(C)(C)OC(=O)N1[C@@H](C=C(Br)Br)COC1(C)C           0.438
2  [N-]=[N+]=NCc1ccccc1C[C@@]1(C(=O)NCCN2CCOCC2)N=C(c2ccc(OCCCO)cc2)O[C@@H]1c1ccccc1           -2.11

Consider the record given below.
Data point: C[N+](C)(C)CCCC[C@@H]1NC(=O)[C@H]2C[C@@H](C(=O)NCCCCCN)[C@@H](c3ccc(O)cc3)N2C1=O ; z-score = 0.435

====

Test system: Wnt5a (protein binding on small-molecule microarray)
method.summary: Wnt5a binders on small-molecule microarray, primary screen, biophysical, 635/667 nm fluorescence (AID 1142);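 also: fluorescence read at 667 nm with signal to noise per printed feature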
setup.conditions: 635 nm fluorescence, higher = more signal
Parameter class (string): assigned from measured composite z-score. Ranges: low group = under 0.1, middle group = from 0.1 up to 0.3, high group = 0.3 and over

molecule	category
CO[C@H]1O[C@H](CO)[C@@H](OC(=O)Nc2cccc(F)c2)[C@H](OC(=O)Nc2ccc3c(c2)OCO3)[C@@H]1OC(=O)Nc1ccc2c(c1)OCO2	middle group

Q. Using the reported composite z-score, which band applies to C=CCNC(=O)[C@@H]1[C@H]2C(=O)O[C@H](c3ccccc3)[C@H](c3ccccc3)N2[C@H](c2ccc(OCCO)cc2)[C@@]12C(=O)Nc1ccc(C#CC3=CCCCC3)cc12 ?
A. middle group

Q. Given COC(=O)c1c2oc(c1C(=O)OC)C(=O)N[C@H](Cc1ccccc1)Cn1cc(nn1)C1(CCCCC1)NC(=O)N[C@H](CO)CC2 , name the class its composite z-score places it in.
A. low group

Q. For this molecule, which bin applies? COc1ccc(C(O)C2C=CC3C(=O)N(c4ccccc4)C(=O)C3N2Nc2ccccc2F)c2ccccc12 (stereo not given)
A. high group

Q. Field: class (composite z-score) — entry: COCCOC(=O)N1C(=O)[C@@]2(c3cc(C#CC4(O)CCCCCC4)ccc31)[C@H](C(N)=O)[C@H]1C(=O)O[C@H](c3ccccc3)[C@H](c3ccccc3)N1[C@@H]2c1ccc(OCCO)cc1
A. high group

Q. Sort into band: COCCOC(=O)N1C(=O)[C@@]2(c3cc(C#CCNC(N)=O)ccc31)[C@H](c1ccccc1OCCO)N1[C@H](c3ccccc3)[C@H](c3ccccc3)OC(=O)[C@H]1[C@@H]2C(=O)N1CCCCCCC1
A. middle group

Q. Hey, which category is COC(=O)C(CC#Cc1ccc2c(c1)[C@]1(C(=O)N2)[C@H](C(=O)N2CCCCCCC2)[C@H]2C(=O)O[C@H](c3ccccc3)[C@H](c3ccccc3)N2[C@@H]1c1ccc(OCCO)cc1)C(=O)OC in, do you know?
A. high group

Q. Band of C=C(C(=O)CC[C@@H](OC(=O)c1ccccc1-c1ccccc1C(=O)O)c1ccc(CO)o1)C(C)C ?
A. high group

Q. Band assignment needed for COC(=O)C(CC#Cc1ccc2c(c1)[C@]1(C(=O)N2)[C@H](C(=O)NC[C@H](O)c2ccccc2)[C@H]2C(=O)O[C@H](c3ccccc3)[C@H](c3ccccc3)N2[C@@H]1c1ccc(O)cc1)C(=O)OC please.
A. low group

====

method.summary: mitochondrial membrane potential change in A549 cells, profiling panel, cell-based, JC-1 fluorescence, basal, 24 h, 100 nL (AID 1138);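 also: A549 lung adenocarcinoma cells under basal conditions with no added stimulus; test concentration not given here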
setup.conditions: higher = more signal
readout.label: z-score
Answers are plain numbers.

Give z-score for all compounds that follow.
1. O=C1O[C@@H](c2ccccc2)[C@@H](c2ccccc2)N2[C@@H](c3ccc(OCCO)cc3)[C@]3(C(=O)Nc4ccc(C#CC5=CCCCC5)cc43)[C@@H](C(=O)Nc3nc4ccccc4s3)[C@H]12
2. CCOC(=O)C1=CC[C@@H](c2ccccc2)N(S(=O)(=O)c2ccc(C)cc2)[C@@H]1C#N
3. COc1cc2c(cc1O)C(C)N(Cc1sc3ccccc3c1Cl)CC2 (stereo not drawn)

A.
-2.31
0.215
0.218

Dear reader, for each entry below, please note its z-score.
1. CC(C)c1ccc(NN2C(C(O)c3ccccc3)C=CC3C(=O)N(c4ccccc4)C(=O)C32)cc1 (stereo not drawn)
2. O=C1C2C=CC(C(O)C3CCCCC3)N(Nc3ccccc3F)C2C(=O)N1c1ccccc1 (stereo not drawn)
3. [N-]=[N+]=NCc1ccccc1[C@H]1OC(c2ccc(OCCCO)cc2)=N[C@@]1(CCS(=O)(=O)c1ccccc1)C(=O)NCCN1CCOCC1
4. CO[C@H]1O[C@H](CO)[C@@H](OC(=O)Nc2cccc(F)c2)[C@H](OC(=O)c2cc3ccccc3[nH]2)[C@H]1OC(=O)c1cc2ccccc2[nH]1
5. COc1ccc(C(=O)Nc2cccc(CN3C(=O)[C@]4(O[C@H](CC(=O)N(CCO)Cc5ccccc5)[C@@H]([Si](C)(C)c5ccc(OC)cc5)[C@@H]4C)c4ccccc43)c2)cc1
6. O=C1NC(=O)C2C1C=CC(C(O)C(c1ccccc1)c1ccccc1)N2Nc1ccccn1 (stereo not drawn)
7. O=C(O)C1=CC[C@H]2C(=O)N(c3ccccc3)C(=O)[C@@H]12

A.
1: 0.266; 2: -0.791; 3: 0.577; 4: -0.68; 5: -0.0253; 6: 0.669; 7: -1.27

Answer for every listed entry: what is its z-score? The entries follow.
1. CCCN1C(=O)[C@@]2(c3ccc([N+](=O)[O-])cc3)CC(=O)N(C3CCCCC3)[C@@H]2c2ccc(CO)cc21
2. C=C(/C=C\CNS(=O)(=O)c1ccc(C)cc1)[C@H](O)[C@H]1CCCN1S(=O)(=O)c1ccccc1[N+](=O)[O-]
3. [N-]=[N+]=Nc1ccccc1C[C@]1(C(=O)N2CCCCC2)N=C(c2ccc(OCCCO)cc2)O[C@H]1c1ccccc1
4. O=C1O[C@@H](c2ccccc2)[C@@H](c2ccccc2)N2[C@@H](c3ccccc3OCCO)[C@]3(C(=O)Nc4ccc(C#CC5(O)CCCCCC5)cc43)[C@@H](C(=O)N3CCCCCCC3)[C@H]12
5. COC(=O)C(CC#Cc1ccc2c(c1)[C@]1(C(=O)N2)[C@H](c2ccccc2OCCO)N2[C@H](c3ccccc3)[C@H](c3ccccc3)OC(=O)[C@H]2[C@@H]1C(=O)N1CCN(c2ncccn2)CC1)C(=O)OC
6. [N-]=[N+]=Nc1ccccc1C[C@]1(C(N)=O)COC(c2ccc(OCCCO)cc2)=N1
7. CC(=O)NCCCC[C@@H]1NC(=O)[C@H]2C[C@@H](C(=O)NCCCCCN)[C@@H](c3ccc(O)cc3)N2C1=O

A.
[-0.755, -0.321, -0.0876, -1.1, -1.46, -0.566, -0.109]

====

target.under.test: Neurogenic locus notch homolog protein 3 (Homo sapiens)
method.summary: NOTCH3 binders on small-molecule microarray, primary screen, biochemical, 635/667 nm fluorescence (AID 1096)
setup.conditions: NOTCH3 binding, 635 nm fluorescence, higher = more signal
Please respond with reported composite z-score for every item in the list.
One number for each entry.

compound	endpoint.value
COC(=O)[C@@]1(Cc2ccc(OC)cc2)[C@@H]2[C@@H](CC(=O)[C@H]2CC(=O)C(=O)N(C)C)CN1C(=O)c1ccccc1	1.01
CN1C(=O)C2C=CC(C(O)c3ccc(I)cc3)N(N(c3ccccc3)c3ccccc3)C2C1=O (configuration not stated)	-0.239

Parameters: items (list). Returns: composite z-score for each item.
1. CC(C)(C)OC(=O)CC[C@@]1(C(N)=O)N=C(c2ccc(OCCCO)cc2)O[C@@H]1c1ccccc1CN=[N+]=[N-]
2. COC(=O)C(CC#Cc1ccc2c(c1)[C@]1(C(=O)N2)[C@H](C(=O)NC[C@H](O)c2ccccc2)[C@H]2C(=O)O[C@H](c3ccccc3)[C@H](c3ccccc3)N2[C@@H]1c1ccc(O)cc1)C(=O)OC
3. [N-]=[N+]=NCc1ccccc1[C@H]1OC(c2ccc(OCCCO)cc2)=N[C@@]1(Cc1ccccc1N=[N+]=[N-])C(N)=O
4. O=C1N(Cc2ccccc2)c2ccccc2C[C@@]12N=C(c1ccc(OCCCO)cc1)O[C@H]2c1ccccc1

A.
1: 0.851; 2: 0.401; 3: 1.09; 4: 1

Batch: composite z-score for all items listed.
1. COC(=O)C(CC#Cc1ccc2c(c1)[C@]1(C(=O)N2)[C@H](C(N)=O)[C@H]2C(=O)O[C@H](c3ccccc3)[C@H](c3ccccc3)N2[C@@H]1c1ccccc1OCCO)C(=O)OC
2. COc1ccc(CCNC(=O)[C@@H]2c3ccccc3C(=O)N(C(C)C)[C@H]2c2ccc(CO)cc2)cc1
3. COC(=O)C1=CC(c2ccc(CO)cc2)=CC(C2CC2)N(Cc2cc3c(cc2Br)OCO3)C=C1C(=O)OC (configuration not stated)
4. COCCOC(=O)N1C(=O)[C@@]2(c3cc(C#CC4=CCCCC4)ccc31)[C@H](C(=O)N1CCCCCCC1)[C@H]1C(=O)O[C@H](c3ccccc3)[C@H](c3ccccc3)N1[C@@H]2c1ccccc1OCCO
5. Cc1ccc(S[C@]2(C(=O)NCc3ccccc3)CC(=O)N(Cc3ccccc3C(F)(F)F)[C@@H]2c2ccc(CO)cc2I)cc1

A.
[0.576, -2.01, 1.11, 1.06, -0.582]

// input: 4 compounds below; output: composite z-score for each
1. [N-]=[N+]=NCc1ccccc1[C@H]1OC(c2ccc(OCCCO)cc2)=N[C@@]1(CCS(=O)(=O)c1ccccc1)C(=O)NCCN1CCOCC1
2. O=C(NCCN1CCOCC1)[C@@H]1c2ccccc2C(=O)N(CC23CC4CC(CC(C4)C2)C3)[C@H]1c1ccc(CO)cc1
3. CC[C@H]1C2=C3C(CC[C@H]4C(OCc5ccc(F)cc5C(F)(F)F)OC[C@](C)([C@@H]34)N(C(=O)OC(C)(C)C)C2)C(COC(C)=O)C1COC(C)=O (some centres not stated)
4. O=C(N1CCOCC1)[C@]1(CCS(=O)(=O)c2ccccc2)N=C(c2ccc(OCCCO)cc2)O[C@@H]1c1ccccc1

A.
[1.06, 1.05, 1.13, 1.08]

Parameters: items (list). Returns: composite z-score for each item.
1. COc1cc(Cc2cc3c(c(CCc4ccccc4)n2)[Si](C(C)C)(C(C)C)O[C@H]3c2ccccc2)cc(OC)c1OC
2. COc1cc(CO)cc(I)c1O[C@H]1C=C(C(=O)NCCO)C[C@@H](N(CCN2CCOCC2)C(=O)C2CCCO2)[C@@H]1O (some centres not stated)

A.
[-0.446, -0.204]
